Tested on: MOLT-4 leukemia
Experiment: NCI-60 one-dose screen, 48 h
Conditions: 10 µM unless noted
Compounds without any hit were thinned out: in the full panel of roughly 83,000, 20% have a hit. The source made the active and inactive calls. Rule for the calls: active = growth percent below 10; inactive = the rest.
Pick one and only one: yes for active, no for inactive

Worked examples follow.
INSERT INTO assay_data (compound, classification) VALUES
  ('OCCCCc1nccc2c1[nH]c1ccccc12', 'no'),
  ('CCCCC1COc2cccc3c(SCC(=O)N(C)c4cccc(Cl)c4)cc[n+]1c23 (stereo not drawn)', 'no'),
  ('O=[N+]([O-])c1cccc(/C=C/c2ccccn2)c1', 'no'),
  ('COc1ccc(/C=C2\C=C(c3ccccc3)N(CCc3ccccc3)C2=O)cc1OC', 'no'),
  ('Nc1nc(Nc2ccc(Cl)cc2)nn1S(=O)(=O)c1ccc(-c2ccc(F)cc2)cc1', 'no');

Field: outcome | Entry: Cn1cc(-c2ccc3ncc(-c4ccc(CC(=O)Nc5cc(C(C)(C)C)nn5C)cc4)cc3c2)cn1
yes

Field: outcome | Entry: [2H]c1nc(Nc2ncc(F)c(-c3cc(F)c4nc(C)n(C(C)C)c4c3)n2)c([2H])c([2H])c1CN1CCN(C([2H])([2H])C([2H])([2H])[2H])CC1
no

Field: outcome | Entry: CC(=O)Nc1cccc(C2=CC(c3ccc(C)cc3)n3ncnc3N2)c1 (stereo not drawn)
no

Field: outcome | Entry: COc1cc2c(cc1OC)-c1ccc3cc4c(cc3c1N(CCCN1CCCCC1)C2)OCO4
yes

---

System: IGROV1 ovarian
Assay: NCI-60 one-dose screen, 48 h (100 = growth as untreated, 0 = no growth, -100 = all killed)
Settings: 10 µM unless noted
Procedure: Growth inhibition of the IGROV1 human tumor cell line is measured as a screen for anti-cancer activity. Cells are grown in 96 well plates and exposed to the test compound for 48 hours. Compounds are tested at a single concentration, which is 10^-5 M for most compounds. The reported endpoint is percent growth (GI% or GIPRCNT), where numbers from 0 - 100% represent growth inhibition, and numbers from -100% - 0 represent cell death. For example, a value of 40 represents 60% growth inhibition. […]
Compounds without any hit were thinned out: in the full panel of roughly 83,000, 20% have a hit.
Would you kindly list growth for each of these molecules?
Answers are plain numbers, in %.

INSERT INTO assay_data (molecule, experimental_system, quantity_unit, numeric_readout) VALUES
  ('COc1ccc(/C=C2\COc3ccc(O)c(O)c3C2=O)c(OC)c1', 'IGROV1 ovarian', '%', 31.3),
  ('O=C(/C=C/C12c3ccccc3C(c3ccccc31)C1C(=O)N(c3ccccc3)C(=O)C12)c1ccc(Cl)cc1 (stereo unspecified)', 'IGROV1 ovarian', '%', 10.4),
  ('COC(=O)c1ccc(CSc2nnc(-c3ccncc3)o2)cc1', 'IGROV1 ovarian', '%', 98.9),
  ('Cc1cn(C2CCCCC2)c(=O)[nH]c1=O', 'IGROV1 ovarian', '%', 126),
  ('CN1CCN(c2ccc3nc(/N=C/c4ccc5sc(-c6ccc([N+](=O)[O-])cc6)nc5c4)sc3c2)CC1', 'IGROV1 ovarian', '%', 114);

For each of the molecules below, state growth.
1. CCNCCNc1cc(-c2ccc(C(=O)OC)cc2)c(C#N)c2nc3ccccc3n12
2. Cc1csc(NC(=O)c2sc3nc(-c4cccs4)ccc3c2N)n1
3. Clc1ccc(/C=N\N=c2\scc(-c3ccc(Cl)cc3)n2/N=C/c2ccc(Cl)cc2)cc1
4. CC(C)OC(=O)OCOP(=O)(OCOC(=O)OC(C)C)C1CCCN(O)C1=O (stereo unspecified)
5. NC(=O)c1c(NC(=O)c2ccccn2)sc2c1CCC(=O)C2
6. Cc1nc(Nc2ccc(NC(=S)Nc3ccccc3)cc2)c2ccccc2n1
7. O=C(c1ccccc1)c1ccc(N2C(=O)C3C4c5ccccc5C(/C=C/C(=O)c5ccccn5)(c5ccccc54)C3C2=O)cc1 (stereo unspecified)
8. COc1cc(C(=O)Nc2cc(O)c(CC=C(C)C)c(O)c2)cc2c1O[C@]1(C)CC[C@@H](O)C(C)(C)[C@H]1C2

1: 53.5; 2: 109; 3: 103; 4: 9.36; 5: 29.9; 6: 99.8; 7: -19.8; 8: 61.1

For each of the molecules below, state growth.
1. CC(=O)C(C(C)=O)c1nc2sc3cc(Cl)ccc3n2c(=N)c1C#N
2. CC/C=C/[C@@H]1C=C[C@@H]2CCC[C@H]2[C@@H]1CC[C@H](O)[C@H](C)N
3. CCNCCNc1cc(-c2cccc(C(F)(F)F)c2)c(C#N)c2nc3ccccc3n12

1: 70.4; 2: 1.42; 3: -74.2

For each of the molecules below, state growth.
1. N#Cc1cnn2c(-c3ccc(Cl)cc3)nc(NC3CC3)nc12
2. COc1cccc(-c2cnco2)c1OCc1c(C)c(COc2c(OC)cccc2-c2cnco2)c(C)c(COc2c(OC)cccc2-c2cnco2)c1C
3. COc1ccc2c(c1)/C(=C\c1sc(=S)[nH]c1O)C(C(=O)O)=N2

[89.4, 80.2, 107]

For each of the molecules below, state growth.
1. O=[N+]([O-])c1ccc(-c2cc3c(Nc4ccc(OCc5cccc(Cl)c5)c(Cl)c4)ncnc3s2)cc1
2. CC(c1ccc(-n2cccn2)cc1)c1cnc(N2CCc3ccc(C(N)=O)cc3C2)s1 (stereo unspecified)

[76.8, 79.8]
